test-target: Dihydroorotate dehydrogenase (quinone), mitochondrial (Plasmodium falciparum (isolate 3D7)) (UniProt Q08210)
Sequence (Q08210 whole entry, looked up): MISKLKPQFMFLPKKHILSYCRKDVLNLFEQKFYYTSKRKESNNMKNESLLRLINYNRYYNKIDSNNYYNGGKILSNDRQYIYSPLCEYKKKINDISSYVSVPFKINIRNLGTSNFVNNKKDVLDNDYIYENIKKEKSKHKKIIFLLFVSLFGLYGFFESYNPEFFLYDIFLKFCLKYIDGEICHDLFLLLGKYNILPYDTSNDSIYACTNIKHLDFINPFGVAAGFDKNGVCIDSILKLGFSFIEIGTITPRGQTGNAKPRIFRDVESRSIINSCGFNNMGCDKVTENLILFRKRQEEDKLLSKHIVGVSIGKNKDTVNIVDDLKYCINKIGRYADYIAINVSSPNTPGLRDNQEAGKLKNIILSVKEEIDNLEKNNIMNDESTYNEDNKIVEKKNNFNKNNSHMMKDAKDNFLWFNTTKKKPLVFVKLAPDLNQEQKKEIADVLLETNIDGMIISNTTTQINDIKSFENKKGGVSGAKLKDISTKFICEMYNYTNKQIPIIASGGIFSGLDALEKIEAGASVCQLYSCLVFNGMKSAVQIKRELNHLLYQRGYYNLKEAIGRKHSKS
experiment-description: PfDHODH enzyme inhibitors, primary screen, biochemical, C-terminal His tag, absorbance 600 nm (AID 1175);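 also: recombinant parasite enzyme with a five histidine tag at its C terminus; test concentration not given here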
recorded-conditions: DCIP absorbance 600 nm, higher = more signal, called active from +8 up or from −8 down
property-measured: composite z-score
Please reply with the value in numeric form only.

# annotated cases, reported composite z-score shown
molecule | number
C=CCC(OC(C)=O)[C@@H]1[C@@H](N(Cc2ccc(-c3ccccc3)cc2)C(=O)Cc2ccc(F)cc2)c2cc(OCCCO)ccc2N1C(=O)c1ccc2ccccc2n1 (some centres undefined) | -0.203
CC(=O)NCCCC[C@@H]1NC(=O)[C@H]2C[C@@H](C(=O)NCCCCCC[N+](C)(C)C)[C@@H](c3cccc(OCCO)c3)N2C1=O | -1.75
Cc1ccc([C@H]2C(C(=O)O)=C[C@@H](C)N2S(=O)(=O)c2ccc(C)cc2)cc1 | -0.377

Next molecule, please.
## Task Requested field: composite z-score. Item: COc1ccc([Si](C)(C)[C@@H]2[C@@H](CC(=O)N(CCO)Cc3ccccc3)O[C@]3(C(=O)N(C)c4ccccc43)[C@H]2C)cc1
## Result -0.688

###

System: Wnt5a (protein binding on small-molecule microarray)
experiment-description: Wnt5a binders on small-molecule microarray, primary screen, biophysical, 635/667 nm fluorescence (AID 1142);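 also: fluorescence read at 667 nm with signal to noise per printed feature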
recorded-conditions: 635 nm fluorescence, higher = more signal
composite z-score reference
// return just the number, without any unit appended

Some compounds with known composite z-score results, for comparison:
compound | composite z-score
COC(=O)c1ccc(C23CC2(C(NP(=O)(c2ccccc2)c2ccccc2)c2ccccc2)C3)cc1 (configuration not stated) | 0.211
COc1cc2c(cc1OC)CN(C(=O)[C@@H]1[C@H]3C(=O)O[C@H](c4ccccc4)[C@H](c4ccccc4)N3[C@H](c3ccccc3OCCO)[C@@]13C(=O)Nc1ccc(C#CCNC(N)=O)cc13)CC2 | 0.38
Cc1ccc(F)cc1S(=O)(=O)N[C@@H]1CCN(Cc2ccc(-c3ccccc3)cc2)C1 | 0.116
COCC(=C=CC[C@H](O)c1ccc(OCCO)cc1)C[C@H](O)c1cc(Cl)cc(Cl)c1O | 0.635
COCCOC(=O)N1C(=O)[C@@]2(c3cc(C#CCCO)ccc31)[C@H](C(=O)NC[C@H](O)c1ccccc1)[C@H]1C(=O)O[C@H](c3ccccc3)[C@H](c3ccccc3)N1[C@@H]2c1ccc(O)cc1 | 0.0418

## Task composite z-score for O=c1cccc(CCc2ccccc2)o1 ?
## Result -0.187

## Task Again, but for CCN(CC)c1ccc(N2CC=CC34O[C@@H]5C=CCCOC(=O)C5[C@H]3C(=O)N(CCCCCO)[C@@H]4C2=O)cc1 (some centres not stated)
## Result 0.0385

###

test-target: Streptavidin (Streptomyces avidinii) (UniProt P22629)
Sequence (P22629 whole entry, looked up): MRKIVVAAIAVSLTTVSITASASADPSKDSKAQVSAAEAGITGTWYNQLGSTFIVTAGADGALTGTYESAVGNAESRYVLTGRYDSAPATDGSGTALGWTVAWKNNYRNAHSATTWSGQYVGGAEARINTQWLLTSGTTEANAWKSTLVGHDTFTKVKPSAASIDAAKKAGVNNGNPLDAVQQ
experiment-description: streptavidin binders on small-molecule microarray, primary screen, artefact control for SMM compound annotation, biophysical, 635/667 nm fluorescence (AID 1147);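 also: signal reflects streptavidin binding to arrayed compounds as a control protein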
recorded-conditions: streptavidin binding, higher = more signal
Please use Y whenever composite z-score is not below 0.2, and N whenever it is.

Example entries begin here.
molecule | test-target | class
CC(C)CNC(=O)[C@@]1(c2ccc([N+](=O)[O-])cc2)CC(=O)N(CC23CC4CC(CC(C4)C2)C3)[C@@H]1c1ccc(CO)cc1I | Streptavidin (Streptomyces avidinii) (UniProt P22629) | Y
C=CCC(OC(C)=O)[C@@H]1[C@@H](N(Cc2cccc3ccccc23)C(=O)c2ccc(C)cc2)c2cc(OCCCO)ccc2N1C(=O)Cc1ccc(OC)cc1 (stereo partly drawn) | Streptavidin (Streptomyces avidinii) (UniProt P22629) | Y
C=CC(=C)C1=CCO[C@@H]1[C@H]1CCCN1S(=O)(=O)c1ccccc1[N+](=O)[O-] | Streptavidin (Streptomyces avidinii) (UniProt P22629) | Y
CC=CC(O)C1C=CC2C(=O)N(c3ccccc3)C(=O)C2N1Nc1ccc(C(C)C)cc1 (stereo not drawn) | Streptavidin (Streptomyces avidinii) (UniProt P22629) | Y

## Task Check if composite z-score >= 0.2 (inclusive). Item: C=CCOC(=O)[C@@H]1[C@H]2C(=O)O[C@H](c3ccccc3)[C@H](c3ccccc3)N2[C@H](c2ccc(OCCOC(=O)[C@@H]3C[C@@H]4C(=O)N[C@@H](Cc5ccccc5)C(=O)N4[C@@H]3c3cccc(OCCO)c3)cc2)[C@@]12C(=O)Nc1ccc(I)cc12
## Result N

## Task Please answer likewise for COCCOC(=O)N1C(=O)[C@@]2(c3cc(C#CCC(C(=O)OC)C(=O)OC)ccc31)[C@H](c1ccccc1OCCO)N1[C@H](c3ccccc3)[C@H](c3ccccc3)OC(=O)[C@H]1[C@@H]2C(=O)N1CCc2cc(OC)c(OC)cc2C1
## Result Y

## Task Also O=C1OCC=C[C@H]2OC34C=CCN(c5ccc6ccccc6c5)C(=O)[C@H]3N(CCCO)C(=O)[C@@H]4[C@@H]12 (stereo partly drawn) , if possible.
## Result N

## Task Moving on to the next molecule: Cc1cc(C)c(C(O)C2C=CC3C(=O)N(C)C(=O)C3N2Nc2ccccc2)c(C)c1 (stereo not drawn)
## Result Y

## Task Now consider O=C1OCC=C[C@H]2OC34C=CCN(c5ccc(Cl)cc5)C(=O)[C@H]3N(CCCCCCO)C(=O)[C@@H]4[C@@H]12 (stereo partly drawn) .
## Result N

## Task // next record CO[C@H]1O[C@H](CO)[C@@H](OC(=O)Nc2ccc3c(c2)OCO3)[C@H](OC(=O)Nc2ccccc2)[C@H]1OC(=O)Nc1ccccc1
## Result Y

## Task Follow-up entry: COc1ccc(NN2C(C(O)c3ccc(OC)c(OCc4ccccc4)c3)C=CC3C(=O)N(C4CCCCC4)C(=O)C32)cc1 (stereo not drawn)
## Result Y

## Task Try this molecule next: CCOC(=O)C[C@H]1[C@H](OC(=O)c2ccc(-c3ccccc3)cc2)[C@@H](NC(=O)c2ccc3ccccc3c2)c2cc(OCCCO)ccc2N1C(=O)Cc1ccc(OC)cc1
## Result N

## Task What would you report for CCOC(=O)C1=CCC(C(C)(C)C)N(S(=O)(=O)c2ccc(C)cc2)C1 (stereo not drawn) ?
## Result Y
